Listed next: entries and their corresponding MyristoylCoA.
Test system: Pseudomonas
Assay: Tested in vitro for the production of acyl-CoA by Acyl-CoA synthetase in Pseudomonas
Kindly answer with a numeric value in %, unit omitted.

COCCCCCCCCCC(O)CC(=O)O (stereo not given) | 114
COCCCCCCCCCC(F)CC(=O)O (stereo not given) | 94
COCCCCCCCCCCCCC(=O)O | 175

[Q] Provide only the value of recorded MyristoylCoA for COCCCCCCCCCCC(F)C(=O)O (stereo not given)
[A] 14

[Q] Provide only the value of recorded MyristoylCoA for COCCCCCCCCC/C=C/C(=O)O
[A] 78

* * *

Target: Glycylpeptide N-tetradecanoyltransferase 1 (Homo sapiens) (UniProt P30419)
Assay: In vitro production of Acylpeptide by human N-myristoyltransferase (NMT) assay
Listed next: entries and their corresponding Myristoylpeptide.
Kindly answer with a numeric value in %, unit omitted.

Some compounds with recorded Myristoylpeptide:
COCCCCCCCCC/C=C/C(=O)O | 5
COCCCCCCCCCCCCC(=O)O | 84

Now consider a different compound.
[Q] Jot down Myristoylpeptide (Glycylpeptide N-tetradecanoyltransferase 1 (Homo sapiens) (UniProt P30419)) of COCCCCCCCCCC(F)CC(=O)O (stereo unspecified) .
[A] 5

* * *

Listed next: entries and their corresponding MyristoylCoA.
Species on record: Homo sapiens
Assay: Tested in vitro for the production of acyl-CoA of compound by Acyl-CoA synthetase in human
Kindly answer with a numeric value in %, unit omitted.

Some molecules with recorded MyristoylCoA:
COCCCCCCCCCCC(F)C(=O)O (stereo not given) | 26
COCCCCCCCCCCCCC(=O)O | 75

Now consider a different molecule.
[Q] Provide only the value of recorded MyristoylCoA for COCCCCCCCCC/C=C/C(=O)O
[A] 12

* * *

Target: UniProt:P14743
Sequence (P14743 whole entry, looked up): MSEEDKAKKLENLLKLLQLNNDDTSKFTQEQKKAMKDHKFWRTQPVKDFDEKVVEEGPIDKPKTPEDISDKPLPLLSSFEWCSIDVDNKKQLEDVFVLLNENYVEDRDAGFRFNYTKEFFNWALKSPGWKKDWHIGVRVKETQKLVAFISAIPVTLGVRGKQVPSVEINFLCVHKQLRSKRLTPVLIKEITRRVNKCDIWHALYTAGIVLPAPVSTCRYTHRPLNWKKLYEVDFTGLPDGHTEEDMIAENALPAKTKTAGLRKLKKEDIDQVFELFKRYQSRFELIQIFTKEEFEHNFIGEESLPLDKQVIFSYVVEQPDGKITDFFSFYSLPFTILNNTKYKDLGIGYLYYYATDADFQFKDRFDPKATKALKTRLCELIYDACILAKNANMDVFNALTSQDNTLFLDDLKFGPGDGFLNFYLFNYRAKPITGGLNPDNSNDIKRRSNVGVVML
Experiment: Tested in vitro for the production of Acylpeptide by yeast N-myristoyltransferase (NMT) assay
assay endpoint: Myristoylpeptide (%)
Kindly answer with a numeric value in %, unit omitted.

COCCCCCCCCCCC(F)C(=O)O (stereo unspecified) | 14

[Q] Provide only the value of recorded Myristoylpeptide for COCCCCCCCCC/C=C/C(=O)O
[A] 7

[Q] Provide only the value of recorded Myristoylpeptide for COCCCCCCCCCCCCC(=O)O
[A] 109

[Q] Provide only the value of recorded Myristoylpeptide for COCCCCCCCCC(O)CCC(=O)O (stereo unspecified)
[A] 107

* * *

Target: Glycylpeptide N-tetradecanoyltransferase 1 (Homo sapiens) (UniProt P30419)
Sequence (whole entry): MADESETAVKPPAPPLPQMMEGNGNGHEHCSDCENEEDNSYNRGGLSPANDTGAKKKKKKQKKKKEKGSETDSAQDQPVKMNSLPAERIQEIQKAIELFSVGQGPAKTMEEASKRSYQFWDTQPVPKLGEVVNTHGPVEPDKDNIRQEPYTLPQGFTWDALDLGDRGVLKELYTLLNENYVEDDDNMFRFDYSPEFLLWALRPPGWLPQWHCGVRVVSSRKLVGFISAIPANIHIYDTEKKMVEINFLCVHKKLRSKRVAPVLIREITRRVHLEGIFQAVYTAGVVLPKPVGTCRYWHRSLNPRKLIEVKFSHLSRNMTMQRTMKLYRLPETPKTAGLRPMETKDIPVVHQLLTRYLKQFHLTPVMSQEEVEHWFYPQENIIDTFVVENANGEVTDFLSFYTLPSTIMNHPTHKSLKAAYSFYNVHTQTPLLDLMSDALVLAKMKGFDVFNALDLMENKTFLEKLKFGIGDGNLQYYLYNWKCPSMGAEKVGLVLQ
Assay: In vitro production of Acylpeptide by human N-myristoyltransferase (NMT) assay
Listed next: entries and their corresponding Myristoylpeptide.

[Q] Jot down Myristoylpeptide (Glycylpeptide N-tetradecanoyltransferase 1 (Homo sapiens) (UniProt P30419)) of COCCCCCCCCCC(O)CC(=O)O (stereo not drawn) .
[A] < 5%

[Q] Jot down Myristoylpeptide (Glycylpeptide N-tetradecanoyltransferase 1 (Homo sapiens) (UniProt P30419)) of COCCCCCCCCCCC(F)C(=O)O (stereo not drawn) .
[A] < 5%

[Q] Jot down Myristoylpeptide (Glycylpeptide N-tetradecanoyltransferase 1 (Homo sapiens) (UniProt P30419)) of COCCCCCCCCC(O)CCC(=O)O (stereo not drawn) .
[A] < 5%
